TARGET_SYSTEM: Full-length wild type HIV-1 integrase (SF1) (Human immunodeficiency virus type 1 group M subtype B, UniProt P04585)
Construct: made in house; host or cells: E. coli BL21 (DE3)
TEST: Integrase strand-transfer scintillation proximity assay
Assay type: biochemical
ASSAY_SETUP: IC50, strand transfer, 50 min at 37° C., 246 nM integrase, 50 nM host DNA
pIC50: −log10 of the molar value.

COMPOUND: O=C(NO)c1cc2c(COC[C@H](O)CO)cn(Cc3ccc(F)cc3F)c2cn1 [Example 107]
pIC50: 8.47
--
COMPOUND: CN1CCN(Cc2cn(Cc3ccc(F)cc3)c3cnc(C(=O)N(C)O)cc23)CC1 [Example 14]
pIC50: 6.27
--
COMPOUND: CN1CCN(Cc2cn(Cc3ccc(F)cc3F)c3cnc(C(=O)N(C)O)cc23)CC1 [Example 13]
pIC50: 6.16
--
COMPOUND: COCc1c(C(=O)NOC)ncc2c1ccn2Cc1ccc(F)cc1F [Example 20]
pIC50: 5.81

----------
Each entry below lists one item and its recorded IC50 value.
TARGET_SYSTEM: Full-length wild type HIV-1 integrase (SF1) (Human immunodeficiency virus type 1 group M subtype B, UniProt P04585)
Construct: made in house; host or cells: E. coli BL21 (DE3)
TEST: Integrase strand-transfer scintillation proximity assay
Format: biochemical
ASSAY_SETUP: strand transfer, 50 min at 37° C., 246 nM integrase, 50 nM host DNA; read-out: IC50

MOLECULE: O=C(NO)c1cc2c(CNCc3ccccn3)cn(Cc3ccc(F)cc3F)c2cn1
IC50: 216 nM

MOLECULE: CCOC(=O)N1C2CC[C@@H]1CC(NCc1cn(Cc3ccc(F)cc3F)c3cnc(C(=O)NO)cc13)C2 (stereo in doubt)
IC50: 311 nM

MOLECULE: O=C(NO)c1cc2c(CNCCc3ccc(F)cc3)cn(Cc3ccc(F)cc3F)c2cn1
IC50: 224 nM

----------
Here the recorded pIC50 is given for each entry.
TARGET_SYSTEM: Full-length wild type HIV-1 integrase (SF1) (Human immunodeficiency virus type 1 group M subtype B, UniProt P04585)
Construct: made in house; host or cells: E. coli BL21 (DE3)
TEST: Integrase strand-transfer scintillation proximity assay
Format: biochemical
ASSAY_SETUP: strand transfer, 50 min at 37° C., 246 nM integrase, 50 nM host DNA; read-out: IC50
pIC50: −log10 of the molar value.

COMPOUND: CN(O)C(=O)c1cc2c(COC[C@@H]3COC(C)(C)O3)cn(Cc3ccc(F)cc3)c2cn1 [Example 110]
pIC50: 7.85
--
COMPOUND: Cc1cnc(CNCc2cn(Cc3ccc(F)cc3F)c3cnc(C(=O)NO)cc23)cn1 [Example 66]
pIC50: 6.45
--
COMPOUND: CCN(CCO)Cc1cn(Cc2ccc(F)cc2F)c2cnc(C(=O)NO)cc12 [Example 69]
pIC50: 6.12
--
COMPOUND: CONC(=O)c1ncc2c(ccn2Cc2ccc(F)cc2)c1O [Example 43]
pIC50: 6.43
--
COMPOUND: O=C(NO)c1cc2c(cn1)c(Cc1ccc(F)cc1)cn2Cc1ccc(F)cc1 [Example 32]
pIC50: 6.67
--
COMPOUND: C[C@@H](OCc1cn(Cc2ccc(F)cc2)c2cnc(C(=O)N(C)O)cc12)c1ccccc1 [Example 119]
pIC50: 7.41
--
COMPOUND: O=C(NO)c1cc2c(CN3CCOCC3)cn(Cc3ccc(F)cc3F)c2cn1 [Example 2]
pIC50: 7.28
--
COMPOUND: O=C(NO)c1cc2c(CNCCOCCO)cn(Cc3ccc(F)cc3F)c2cn1 [Example 58]
pIC50: 6.23
--
COMPOUND: O=C(NO)c1ncc2c(ccn2Cc2ccc(F)cc2)c1O [Example 42]
pIC50: 7.57

----------
Tested on: RF strain of HIV-1 in CEM-SS cells
TEST: HIV-1 cell protection assay (XTT dye reduction)
Assay type: cell-based
ASSAY_SETUP: Human immunodeficiency virus 1, CEM-SS, 144 h
Experimental: HIV-1 Cell Protection Assay The antiviral activities of potential modulator compounds (test compounds) were determined in HIV-1 cell protection assays using the RF strain of HIV-1, CEM-SS cells, and the XTT dye reduction method (Weislow, O. S. et al., J. Natl. Cancer Inst. 81: 577-586 (1989)). […] Viability, as determined by the amount of XTT formazan produced, was quantified spectrophotometrically by absorbance at 450 nm. […]
Items are presented alongside their recorded log10 of EC50.
MEASUREMENT_NAME: log10 of EC50 (log10 of the value in nM)

COMPOUND: CN(O)C(=O)c1cc2c(CN3CCNC(=O)C3)cn(Cc3ccc(F)cc3)c2cn1
log10 of EC50: 2.55
//
COMPOUND: CN(O)C(=O)c1cc2c(CN3[C@H]4CC[C@@H]3C(=O)NC4)cn(Cc3ccc(F)cc3)c2cn1
log10 of EC50: 2.23
//
COMPOUND: CCOC(=O)N1C2CC[C@@H]1CC(NCc1cn(Cc3ccc(F)cc3F)c3cnc(C(=O)NO)cc13)C2 (stereo in doubt)
log10 of EC50: 1.30
//
COMPOUND: COCCOCc1cn(Cc2ccc(F)cc2F)c2cnc(C(=O)N(C)O)cc12
log10 of EC50: 2.72
//
COMPOUND: CN(O)C(=O)c1cc2c(COC[C@@H]3COC(C)(C)O3)cn(Cc3ccc(F)cc3)c2cn1
log10 of EC50: 2.53
//
COMPOUND: COCCOCc1cn(Cc2ccc(F)cc2)c2cnc(C(=O)N(C)O)cc12
log10 of EC50: 2.52
//
COMPOUND: COCc1cn(Cc2ccc(F)cc2)c2cnc(C(=O)N(C)O)cc12
log10 of EC50: 2.38

----------
TARGET_SYSTEM: Full-length wild type HIV-1 integrase (SF1) (Human immunodeficiency virus type 1 group M subtype B)
Construct: made in house; host or cells: E. coli BL21 (DE3)
TEST: Integrase strand-transfer scintillation proximity assay
Type: biochemical
ASSAY_SETUP: strand transfer, 50 min at 37° C., 246 nM integrase, 50 nM host DNA; read-out: IC50
Item-by-item account of log10 of IC50
MEASUREMENT_NAME: log10 of IC50 (log10 of the value in nM)

COMPOUND: CC1(C)OC[C@H](COCc2cn(Cc3ccc(F)cc3)c3cnc(C(=O)NO)cc23)O1
log10 of IC50: 1.30
//
COMPOUND: O=C(NO)c1cc2c(CNC3CC3c3ccccc3)cn(Cc3ccc(F)cc3F)c2cn1 (racemic)
log10 of IC50: 2.58
//
COMPOUND: O=C(NO)c1cc2c(CNCCO)cn(Cc3ccc(F)cc3F)c2cn1 [Example 3]
log10 of IC50: 2.29
//
COMPOUND: CN(O)C(=O)c1cc2cnn(Cc3ccc(F)cc3)c2cn1
log10 of IC50: 2.91
//
COMPOUND: CN(C)CCCNCc1cn(Cc2ccc(F)cc2F)c2cnc(C(=O)NO)cc12
log10 of IC50: 2.54
//
COMPOUND: CN1CCN(CCCNCc2cn(Cc3ccc(F)cc3F)c3cnc(C(=O)NO)cc23)CC1
log10 of IC50: 2.89
//
COMPOUND: CN(O)C(=O)c1cc2c(CN3CC[C@@H]4CNC(=O)[C@@H]4C3)cn(Cc3ccc(F)cc3F)c2cn1 (relative stereo)
log10 of IC50: 1.79
//
COMPOUND: O=C(NO)c1cc2c(CNCC34CCCN3CCC4)cn(Cc3ccc(F)cc3F)c2cn1
log10 of IC50: 2.63
//
COMPOUND: O=C(CC(NCc1cn(Cc2ccc(F)cc2F)c2cnc(C(=O)NO)cc12)C1CC1)NC1CC1 (centres unmarked)
log10 of IC50: 2.67
//
COMPOUND: CC1CCCN1Cc1cn(Cc2ccc(F)cc2F)c2cnc(C(=O)NO)cc12 (centres unmarked)
log10 of IC50: 2.70
//
COMPOUND: CN(O)C(=O)c1cc2ncn(Cc3ccc(F)cc3)c2cn1
log10 of IC50: 3.11
//
COMPOUND: O=C(NO)c1cc2c(CNCCc3ccccn3)cn(Cc3ccc(F)cc3F)c2cn1
log10 of IC50: 2.44
//
COMPOUND: Cc1ccc2c(c1)C(NCc1cn(Cc3ccc(F)cc3F)c3cnc(C(=O)NO)cc13)CCO2 (centres unmarked)
log10 of IC50: 2.41
//
COMPOUND: CCOCCOCc1cn(Cc2ccc(F)cc2)c2cnc(C(=O)N(C)O)cc12
log10 of IC50: 1.76
//
COMPOUND: O=C(NO)c1cc2c(CNC3CCOCC3)cn(Cc3ccc(F)cc3F)c2cn1
log10 of IC50: 2.72
//
COMPOUND: CONC(=O)c1cc2c(CN3CC[C@@H]4C(=O)NC[C@@H]4C3)cn(Cc3ccc(F)cc3F)c2cn1 (racemic)
log10 of IC50: 2.48
//
COMPOUND: O=C(NO)c1cc2c(COC[C@@H](O)CO)cn(Cc3ccc(F)cc3F)c2cn1
log10 of IC50: 1.08
